- SYSTEM TESTED: DNA gyrase subunit A/DNA gyrase subunit B (Mycobacterium tuberculosis (strain ATCC 25618 / H37Rv), UniProt P9WG45+P9WG47)
- Sequence (P9WG45 whole entry): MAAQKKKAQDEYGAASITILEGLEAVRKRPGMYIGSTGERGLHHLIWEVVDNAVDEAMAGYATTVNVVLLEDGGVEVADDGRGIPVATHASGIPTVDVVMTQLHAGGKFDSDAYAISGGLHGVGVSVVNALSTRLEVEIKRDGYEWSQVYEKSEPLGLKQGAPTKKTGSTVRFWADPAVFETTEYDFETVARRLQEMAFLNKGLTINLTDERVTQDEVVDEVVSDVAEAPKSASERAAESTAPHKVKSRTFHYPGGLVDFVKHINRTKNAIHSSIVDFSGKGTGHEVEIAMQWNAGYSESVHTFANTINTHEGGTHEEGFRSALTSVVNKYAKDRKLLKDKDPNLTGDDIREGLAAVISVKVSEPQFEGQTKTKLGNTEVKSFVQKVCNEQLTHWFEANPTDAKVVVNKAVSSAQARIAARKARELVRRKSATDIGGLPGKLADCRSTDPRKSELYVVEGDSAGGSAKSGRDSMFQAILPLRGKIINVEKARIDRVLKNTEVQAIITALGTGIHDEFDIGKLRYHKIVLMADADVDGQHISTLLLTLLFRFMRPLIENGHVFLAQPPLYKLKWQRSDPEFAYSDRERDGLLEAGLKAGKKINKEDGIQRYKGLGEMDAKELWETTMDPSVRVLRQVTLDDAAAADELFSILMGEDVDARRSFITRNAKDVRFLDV
- Sequence (P9WG47 whole entry): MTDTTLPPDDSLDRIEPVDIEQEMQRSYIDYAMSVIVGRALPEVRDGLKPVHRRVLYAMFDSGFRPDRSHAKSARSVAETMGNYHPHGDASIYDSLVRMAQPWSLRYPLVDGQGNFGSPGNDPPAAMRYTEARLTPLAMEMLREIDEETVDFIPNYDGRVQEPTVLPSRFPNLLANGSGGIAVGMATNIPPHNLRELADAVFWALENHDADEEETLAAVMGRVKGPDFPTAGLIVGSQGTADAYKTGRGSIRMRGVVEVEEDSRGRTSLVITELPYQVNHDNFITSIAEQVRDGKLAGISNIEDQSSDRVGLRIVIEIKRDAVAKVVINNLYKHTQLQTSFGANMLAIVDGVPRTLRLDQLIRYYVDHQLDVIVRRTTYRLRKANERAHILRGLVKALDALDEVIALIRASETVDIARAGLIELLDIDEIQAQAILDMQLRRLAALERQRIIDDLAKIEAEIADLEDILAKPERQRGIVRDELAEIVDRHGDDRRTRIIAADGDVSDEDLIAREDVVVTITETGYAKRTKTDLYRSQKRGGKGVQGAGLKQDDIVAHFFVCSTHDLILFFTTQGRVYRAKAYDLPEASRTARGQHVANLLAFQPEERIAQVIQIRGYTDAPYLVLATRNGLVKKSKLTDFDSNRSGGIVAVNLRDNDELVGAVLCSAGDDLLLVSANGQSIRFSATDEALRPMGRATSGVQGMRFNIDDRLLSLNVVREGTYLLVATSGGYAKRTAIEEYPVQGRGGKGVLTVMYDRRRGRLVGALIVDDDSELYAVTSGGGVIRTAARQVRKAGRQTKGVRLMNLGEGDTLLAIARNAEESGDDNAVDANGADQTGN
- TEST NAME: Inhibition of Mycobacterium tuberculosis DNA gyrase assessed as inhibition of DNA supercoiling after 30 mins by electrophoresis
METRIC NAME: IC50 (µM)
// note: answer is a bare numeric in µM

# ITEM SMILES, UNIT DESCRIPTOR, IC50
rows = [
    ("Cc1ccc(NC(=O)Nc2ccc(Nc3c4ccccc4nc4ccc(Cl)cc34)cc2)cc1", "µM", 12.5),
    ("Cc1ccc2nc3ccccc3c(Nc3ccc(NS(=O)(=O)c4ccc([N+](=O)[O-])cc4)cc3)c2c1", "µM", 8.34),
    ("Cc1ccc(S(=O)(=O)Nc2ccc(Nc3c4ccccc4nc4ccc(Cl)cc34)cc2)cc1", "µM", 22.8),
    ("O=C(Nc1ccccc1)Nc1ccc(Nc2c3ccccc3nc3ccc(Cl)cc23)cc1", "µM", 23.6),
]

Memo: `Cc1ccc(S(=O)(=O)Nc2ccc(Nc3c4ccccc4nc4ccccc34)cc2)cc1` , reported IC50: 9.3

Data point: `O=C(Nc1ccccc1)Nc1ccc(Nc2c3ccccc3nc3ccccc23)cc1` ; IC50 = 32.6

###

- Tested on: Escherichia coli
- TEST NAME: Inhibition of Escherichia coli DNA gyrase assessed as inhibition of DNA supercoiling
The source made the active and inactive calls. No cut-off for these calls is given here.
METRIC NAME: inhibition

The examples below pair each entry with its known result.
# ITEM SMILES, METRIC NAME, ENDPOINT RESULT
rows = [
    ("Cc1ccc(NC(=S)Nc2ccc(Nc3c4ccccc4nc4ccccc34)cc2)cc1", "inhibition", "inactive"),
    ("S=C(Nc1ccccc1)Nc1ccc(Nc2c3ccccc3nc3ccc(Cl)cc23)cc1", "inhibition", "inactive"),
    ("O=C(Nc1ccc(Cl)cc1)Nc1ccc(Nc2c3ccccc3nc3ccccc23)cc1", "inhibition", "inactive"),
    ("S=C(Nc1ccc(Cl)cc1)Nc1ccc(Nc2c3ccccc3nc3ccc(Cl)cc23)cc1", "inhibition", "inactive"),
    ("Cc1ccc(S(=O)(=O)Nc2ccc(Nc3c4ccccc4nc4ccc(C)cc34)cc2)cc1", "inhibition", "inactive"),
]

inhibition measured on `O=C(Nc1ccc(Nc2c3ccccc3nc3ccccc23)cc1)Nc1ccc([N+](=O)[O-])cc1` = inactive

compound `Cc1ccc(NC(=O)Nc2ccc(Nc3c4ccccc4nc4ccc(C)cc34)cc2)cc1` , inhibition observed: inactive

For `S=C(Nc1ccc(Cl)cc1)Nc1ccc(Nc2c3ccccc3nc3ccccc23)cc1` the compound record lists inhibition as inactive

// inhibition lookup, compound = `O=C(Nc1ccccc1)Nc1ccc(Nc2c3ccccc3nc3ccc(Cl)cc23)cc1` , result: inactive

In plain terms, `S=C(Nc1ccccc1)Nc1ccc(Nc2c3ccccc3nc3ccccc23)cc1` has a documented inhibition of inactive

###

- SYSTEM TESTED: DNA gyrase (Pseudomonas aeruginosa) (UniProt P48372+Q9I7C2)
- TEST NAME: Inhibition of Pseudomonas aeruginosa DNA gyrase assessed as inhibition of DNA supercoiling
- Assay type: protein-complex assay
Active and inactive are the calls of the source. The calls are words filed in the database; no cut-off is given here.
METRIC NAME: inhibition

# ITEM SMILES, SYSTEM TESTED, METRIC NAME, ENDPOINT RESULT
rows = [
    ("Cc1ccc2nc3ccccc3c(Nc3ccc(NC(=O)Nc4ccc(Cl)cc4)cc3)c2c1", "DNA gyrase (Pseudomonas aeruginosa) (UniProt P48372+Q9I7C2)", "inhibition", "inactive"),
    ("Cc1ccc2nc3ccccc3c(Nc3ccc(NS(=O)(=O)c4ccc(Cl)cc4)cc3)c2c1", "DNA gyrase (Pseudomonas aeruginosa) (UniProt P48372+Q9I7C2)", "inhibition", "inactive"),
    ("O=C(Nc1ccccc1)Nc1ccc(Nc2c3ccccc3nc3ccccc23)cc1", "DNA gyrase (Pseudomonas aeruginosa) (UniProt P48372+Q9I7C2)", "inhibition", "inactive"),
]
